assay: Noncompetitive inhibition of rat liver Casein kinase 2 using 80 uM ATP and increasing phosphoacceptor substrate by Lineweaver-Burke plot
outcome_measure: Ki (µM)
Give just the number in µM; leave the unit off.

Annotate the compound "Clc1c(Cl)c(Cl)c2[nH]cnc2c1Cl" with its measured Ki.
21

----------
assay: Inhibition of rat liver Casein kinase 2
pKi: −log10 of the molar value.
Param threshold (7) applies to pKi; output Met when value >= threshold, Not met when value < threshold.

Clc1c(Cl)c(I)c2[nH]cnc2c1I: Not met
S=c1[nH]c2c(I)c(I)c(I)c(I)c2[nH]1: Met
Ic1c(I)c(I)c2[nH]cnc2c1I: Met

Now take the following compound into account.
Identify whether the reported pKi of the following compound is 7 or greater: "Clc1c(I)c(Cl)c2nc[nH]c2c1I"
Not met
